Assay: method code SF, from DOI: 10.1002/jps.2600641111, PMID: 1195110
Conditions: pH 7.4
OBSERVABLE: logD
Answers are plain numbers.

CC(=O)OCCn1c([N+](=O)[O-])cnc1C yielded logD of 0.3

###

Assay: method code SF, from DOI: 10.1021/jm00151a007, PMID: 3941412
Conditions: pH 9.0
OBSERVABLE: logD
Answers are plain numbers.

Input CNc1c(NCCSCc2nc[nH]c2C)c(=O)c1=O . Output logD: -0.08

###

Experiment: method code SF-GLC, from DOI: 10.1007/bf00343116, PMID: 4026577
OBSERVABLE: logP
Numbers only.

{"COMPOUND STRUCTURE STRING": "N#CCCCCCC#N", "logP": 0.05}

Sample N#CCCCCCCC#N ; logP observed: 0.59

###

Experiment: method code SF-HPLC, from DOI: 10.1016/0378-5173(90)90184-6
Conditions: pH 4.0
Provide the recorded logD for the entries that follow.
Give bare numbers.

{"COMPOUND STRUCTURE STRING": "CCCCCCCCNC(=O)n1cc(F)c(=O)[nH]c1=O", "logD": 3.9}

Now take the following compound into account.
For record CCCCCCNC(=O)n1cc(F)c(=O)[nH]c1=O the listed logD is 2.63

###

Assay: method code SF-HPLC, from DOI: 10.1002/ps.2780440103
Settings: pH 2.0
OBSERVABLE: logD

The reported value for O=C(O)[C@H]1O[C@@H](Oc2ccc([N+](=O)[O-])cc2)[C@H](O)[C@@H](O)[C@@H]1O in terms of logD is -0.75

###

Assay: method code SF-RC, from PMID: 1811623
OBSERVABLE: logP

Per the record, Cc1c(C)c2ccc3occc3c2oc1=O has logP of 2.9

###

Exercise: for every item that follows, state its recorded logP.
Answers are plain numbers.

Below, each entry is followed by its recorded logP result.
{"COMPOUND STRUCTURE STRING": "CC(C)(C)c1ccc(O)c(C(C)(C)C)c1", "logP": 4.74}
{"COMPOUND STRUCTURE STRING": "Cc1ccc(C)c(O)c1", "logP": 2.48}

Moving on to the next molecule.
The molecule identified as CC(C)(C)c1cc(C(C)(C)C)c(O)c(C(C)(C)C)c1 registered its logP at 6.3

###

Assign logD to each entry below.
Test: method code SF-HPLC, from DOI: 10.1016/j.ejpb.2013.06.022, PMID: 23958327
Conditions: pH 6.0
Numbers only.

{"COMPOUND STRUCTURE STRING": "CCOC(=O)O[C@]1(C(=O)COC(=O)CC)CC[C@H]2[C@@H]3CCC4=CC(=O)C=C[C@]4(C)[C@H]3[C@@H](O)C[C@@]21C", "logD": 2.9}
{"COMPOUND STRUCTURE STRING": "Cc1cc(C2CCCCC2)n(O)c(=O)c1", "logD": 2.3}

Reported logD for CCOC(=O)c1ccc(C#Cc2ccc3c(c2)C(C)(C)CCS3)nc1 was 5.6

###

Provide the reported logP of each item.
Assay: method code SF-AS, from DOI: 10.1002/jps.2600611027, PMID: 5072421
One number for each entry.

{"COMPOUND STRUCTURE STRING": "CCCCCCCCc1ccncc1", "NUMERIC VALUE": 5.42}

Looking up CCCCCCCCCc1ccncc1 , I found its logP recorded as 6.11
